# Test details: Caspase-3/7 induction in CHO-K1 cells by small molecules, qHTS cell viability counter screen (AID 1346979); note: nearly all actives have a fitted effect of over 35% in size
# Recorded conditions: CellTiter-Fluor fluorescence, 17 h; series mostly up to 92.4 µM
Inconclusive results are not listed. Activity calls are given as the source filed them. Calls come from the whole dose curve; as a rule, active = well fitted cell-killing curve with a large enough effect in the repeat runs; inconclusive = weak or mixed curves, or effect the other way; inactive = no such curve, though single readings can be large or run the other way.
Classes to choose from: active, inactive

>  <Compound>
CC(=O)[O][Pb]([c]1ccccc1)([c]1ccccc1)[c]1ccccc1

>  <Class>
active

$$$$
>  <Compound>
N#Cc1c[nH]cc1-c1cccc2c1OC(F)(F)O2

>  <Class>
active

$$$$

Can you look up the reported call for `COc1ccc(Cc2nccc3cc(OC)c(OC)cc23)cc1OC` for me? active

Now consider CCCCC(CC)COC(=O)OOC(C)(C)C (stereo not drawn) . inactive

Now consider `CCCCN(CCCC)C(=S)S` . inactive
